Tested on: Escherichia coli
Test: Antibacterial activity against Escherichia coli ATCC 25938
Format: functional
Reported MIC is given for each of the following molecules.
Entry rule: numbers only, all in µg/mL.

# annotated cases, reported MIC shown
COC(=O)c1c(C(=O)OC)c2c3ccccc3ccn2c1C(=O)c1ccccc1 | 256
N#Cc1cc(C(=O)c2ccccc2)n2ccc3ccccc3c12 | 256
CC1(C)S[C@@H]2[C@H](NC(=O)[C@H](N)c3ccc(O)cc3)C(=O)N2[C@H]1C(=O)O | 0.5
O=C(c1ccccc1)c1c(-c2ccccc2)cc2c3ccccc3ccn12 | 32
CCOC(=O)c1cc(C(=O)c2ccccc2)n2ccc3ccccc3c12 | 64
CCOC(=O)c1c(C(=O)OCC)c2c3ccccc3ccn2c1C(=O)c1ccccc1 | 128

Now let's try a different one.
Request: Give the value of MIC reported for the following: COC(=O)c1cc(C(=O)c2ccccc2)n2ccc3ccccc3c12
Result: 500

====

System: Micrococcus luteus
Assay: Antibacterial activity against Micrococcus luteus AGD1
Format: functional
Quantity: MIC

COC(=O)c1c(C(=O)OC)c2ccc3ccccc3n2c1C(=O)c1ccccc1 | > 500 µg/mL
CCOC(=O)c1c(C(=O)OCC)c2ccccn2c1C(=O)c1ccccc1 | > 500 µg/mL
N#Cc1cc2ccccn2c1C(=O)c1ccccc1 | 256 µg/mL
COC(=O)c1cc(C(=O)c2ccccc2)n2ccc3ccccc3c12 | > 500 µg/mL
CCOC(=O)c1cc(C(=O)c2ccccc2)n2ccc3ccccc3c12 | 500 µg/mL

Now let's try a different one.
Request: Using Micrococcus luteus as the test system, report measured MIC of COC(=O)c1c(C(=O)OC)c2c3ccccc3ccn2c1C(=O)c1ccccc1 .
Result: > 500 µg/mL

====

Test system: Enterococcus faecalis
Assay: Antibacterial activity against Streptococcus faecalis isolate 29212
Format: functional
Quantity: MIC (µg/mL)
Entry rule: numbers only, all in µg/mL.

# annotated cases, reported MIC shown
COC(=O)c1c(C(=O)OC)c2ccc3ccccc3n2c1C(=O)c1ccccc1 | 64
CCOC(=O)c1cc(C(=O)c2ccccc2)n2ccc3ccccc3c12 | 256
CC1(C)S[C@@H]2[C@H](NC(=O)[C@H](N)c3ccc(O)cc3)C(=O)N2[C@H]1C(=O)O [AMOXICILLIN] | 0.25
COC(=O)c1cc(C(=O)c2ccccc2)n2ccc3ccccc3c12 | 256
CCOC(=O)c1c(C(=O)OCC)c2ccc3ccccc3n2c1C(=O)c1ccccc1 | 500

Request: Give the value of MIC reported for the following: O=C(c1ccccc1)c1c(-c2ccccc2)cc2c3ccccc3ccn12
Result: 500

Request: Give the value of MIC reported for the following: N#Cc1cc2ccccn2c1C(=O)c1ccccc1
Result: 500

====

Tested on: Salmonella typhimurium
Test: Antibacterial activity against Salmonella Typhimurium isolate 11 at 1 to 1000 ug/ml after overnight incubation by disc diffusion method
Assay type: functional, organism-based
Details: Salmonella enterica subsp. enterica serovar Typhimurium
Activity calls are given as the source filed them. The rule behind the calls is not given here.
Quantity: diameter of the inhibition zone (DIZ)

# annotated cases, reported diameter of the inhibition zone (DIZ) shown
CCOC(=O)c1cc(C(=O)c2ccccc2)n2ccc3ccccc3c12 | inactive
O=C(c1ccccc1)c1c(-c2ccccc2)cc2c3ccccc3ccn12 | inactive
N#Cc1cc(C(=O)c2ccccc2)n2ccc3ccccc3c12 | inactive
COC(=O)c1c(C(=O)OC)c2ccc3ccccc3n2c1C(=O)c1ccccc1 | inactive
CCOC(=O)c1c(C(=O)OCC)c2ccc3ccccc3n2c1C(=O)c1ccccc1 | inactive

Request: Give the value of diameter of the inhibition zone (DIZ) reported for the following: N#Cc1cc2ccccn2c1C(=O)c1ccccc1
Result: inactive
